All values here come from PubChem BioAssay (NCI).

What growth inhibition was measured for each of the following?
experiment: NCI Yeast Anticancer Drug Screen. Data for the mec2-1 strain (AID 157); settings: S. cerevisiae mec2-1 strain, at 50.0 µM (retest, dose inferred, filed as 5.0), hits give high values
About 79,000 compounds went through this panel and 15% of them were active in at least one assay; those are over-represented in the sample as a whole.
Enter your answer as a number in %; do not include the unit.

Ask: Look up growth inhibition: `[Cl][Sn]1([c]2ccccc2)[O]CCNCC[O]1`
Reply: 99

Ask: Look up growth inhibition: `CN(C)c1ccc(N=Cc2c([O-])ccc3ccccc23)cc1.[C-]#[O+].[C-]#[O+].[Ir]`
Reply: 15

Ask: Look up growth inhibition: `Cc1oc2c([N+](=O)[O-])cccc2c1[N+](=O)[O-]`
Reply: 99

Ask: Look up growth inhibition: `CS(=O)(=O)OCCN(CCOS(C)(=O)=O)c1ccc(C=O)cc1`
Reply: 88

Ask: Look up growth inhibition: `O=[N+]([O-])c1ccc(O)c(CCl)c1`
Reply: 22

Ask: Look up growth inhibition: `CCC[CH2][Sn]([F])([CH2]CCC)[O][Sn]([F])([CH2]CCC)[CH2]CCC`
Reply: 99

Ask: Look up growth inhibition: `CN[C@H]1C[C@@H]2O[C@@](C)([C@H]1OC)n1c3ccccc3c3c4c(c5c6ccccc6n2c5c31)C(=O)NC4`
Reply: 99

Ask: Look up growth inhibition: `O=P(O/C(=C\c1ccccc1)c1ccccc1)(c1ccccc1)c1ccccc1`
Reply: 98

Ask: Look up growth inhibition: `Cc1nc2c(Br)cc(Br)cc2c(=O)n1-c1ccccc1N`
Reply: 17

Ask: Look up growth inhibition: `O=P(Oc1ccc(Cl)cc1)(Oc1ccc(Cl)cc1)N1CC1`
Reply: 6

====

assay: NCI Yeast Anticancer Drug Screen. Data for the rad50EPP+ strain (AID 151);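 also: 0% = growth of vehicle-treated control cultures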; conditions: S. cerevisiae rad50 mutant strain, at 100.0 µM, hits give high values
About 79,000 compounds went through this panel and 15% of them were active in at least one assay; those are over-represented in the sample as a whole.
VALUE TYPE: growth inhibition (%)
Enter your answer as a number in %; do not include the unit.

Ask: Look up growth inhibition: `O=[N+]([O-])c1cc([As](Br)c2ccc(O)c([N+](=O)[O-])c2)ccc1O`
Reply: 99

Ask: Look up growth inhibition: COc1cccc2c1C(=O)c1c(O)c3c(c(O)c1C2=O)C[C@@](O)(C(C)=O)C[C@@H]3OC1CC(N)C(OC2CC(O)C(O)C(C)O2)C(C)O1 (some centres undefined)
Reply: 38

Ask: Look up growth inhibition: O=[N+]([O-])O.[NH-]C1CCCCC1[NH-].[NH-]C1CCCCC1[NH-].[NH-]C1CCCCC1[NH-].[OH-].[OH-].[OH-].[Pt+4].[Pt+4].[Pt+4] (centres undefined)
Reply: -31

Ask: Look up growth inhibition: O=C1c2ccc3ccccc3c2CCC1N1CCCCC1 (centres undefined)
Reply: 98

====

test: NCI Yeast Anticancer Drug Screen. Data for the mlh1 rad18 strain (AID 175); details: S. cerevisiae mlh1 rad18 strain growth inhibition; at 5.0 µM (retest, dose inferred, filed as 0.5); hits give high values
Compounds without any hit were thinned out: in the full panel of roughly 79,000, 15% have a hit.
What growth inhibition was measured for each of the following?
Enter your answer as a number in %; do not include the unit.

Ask: Look up growth inhibition: C/C(=N\Nc1ccccn1)C1CC[N-]C2C(O)CCCC12.C/C(=N\Nc1ccccn1)C1CC[N-]C2C(O)CCCC12.[Cu+2] (stereo not given)
Reply: 99

Ask: Look up growth inhibition: `COc1cc(/C=C/c2ccc(OC)c(OC)c2)cc(OC)c1`
Reply: -3

Ask: Look up growth inhibition: O=C1C=CC(=O)N1c1cccc2ccccc12 (tested in a mixture with another compound)
Reply: -1

Ask: Look up growth inhibition: `Nc1ccc(Cl)cc1C(=O)c1ccccc1`
Reply: 39

Ask: Look up growth inhibition: NC(=O)/C=C/C(=O)O (tested in a mixture with another compound)
Reply: -1

Ask: Look up growth inhibition: `Cc1cc(C)c(O)c(C)c1.[Hg]`
Reply: 98

Ask: Look up growth inhibition: `Cc1cc(NCc2ccccc2)c2ccccc2[n+]1CCCCCCCCCC[n+]1c(C)cc(NCc2ccccc2)c2ccccc21`
Reply: 97

Ask: Look up growth inhibition: `CCC1(C2=CCCCC2)C(=O)NC(=S)NC1=O`
Reply: 0

Ask: Look up growth inhibition: `FC(F)(F)c1nnn[n-]1.[Au+].c1ccc([PH+](c2ccccc2)c2ccccc2)cc1`
Reply: 99

Ask: Look up growth inhibition: `Oc1ccc([Te]CCNCC[Te]c2ccc(O)cc2)cc1`
Reply: 36

====

What growth inhibition was measured for each of the following?
test: NCI Yeast Anticancer Drug Screen. Data for the sgs1 mgt1 strain (AID 161);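 also: 0% = growth of cultures given vehicle only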; settings: S. cerevisiae sgs1 mgt1 strain, at 50.0 µM, hits give high values
About 79,000 compounds went through this panel and 15% of them were active in at least one assay; those are over-represented in the sample as a whole.
Enter your answer as a number in %; do not include the unit.

Ask: Look up growth inhibition: C/C1=C\[C@@H](O)C(=O)/C=C/C=C\c2csc(n2)[C@@H](C)NC(=O)C[C@@]2(CC1)S(=O)SC(=O)[C@]2(C)O (stereo partly drawn)
Reply: 92.2

Ask: Look up growth inhibition: `CN(C)C(=[Se])[Se]C(=[Se])N(C)C`
Reply: 95.5

Ask: Look up growth inhibition: `O=[N+]([O-])c1cc([N+](=O)[O-])c(Cl)cc1F`
Reply: 78.2

Ask: Look up growth inhibition: `CCS(=O)(=O)[O][Sn]([CH2]C)([CH2]C)[O]S(=O)(=O)CC`
Reply: 42.2

Ask: Look up growth inhibition: Cc1cccc(OCC(O)CN2CC2)c1 (stereo not drawn)
Reply: 89.4

Ask: Look up growth inhibition: `ClCCCCCl`
Reply: -18.9

Ask: Look up growth inhibition: `O=C(O)CP(=O)(c1ccccc1)c1ccccc1.O=C(O)CP(=O)(c1ccccc1)c1ccccc1.[Cd]`
Reply: 56

Ask: Look up growth inhibition: CC(=O)C(CN(C)C)C(c1ccccc1)c1c(O)c2ccccc2oc1=O (stereo not drawn)
Reply: 70.8

Ask: Look up growth inhibition: N#CC(C#N)=Cc1ccc2c(c1)OC(Cl)O2 (stereo not drawn)
Reply: 57.5

Ask: Look up growth inhibition: `CCOP(=O)(OCC)Oc1ccc([N+](=O)[O-])cc1`
Reply: -7

Ask: Look up growth inhibition: CC(CN1CCCCCCC1)C(C#N)(c1ccccc1)c1ccccc1 (stereo not drawn)
Reply: 67.5

Ask: Look up growth inhibition: `Cl[C](Cl)(Cl)[Hg][c]1ccccc1`
Reply: 92.7

Ask: Look up growth inhibition: `Nc1nnc(N)n1-n1c(N)nnc1N`
Reply: 27.9

Ask: Look up growth inhibition: `C=C[C@H]1CN2CC[C@H]1C[C@@H]2[C@@H](O)c1ccnc2ccccc12`
Reply: -11.9

Ask: Look up growth inhibition: `N#CN(Cc1ccccc1)C(c1ccccc1)(c1ccccc1)c1ccccc1.[Cl][Sn]([c]1ccccc1)([c]1ccccc1)[c]1ccccc1`
Reply: 98

Ask: Look up growth inhibition: `Cn1cc(/C=C/[N+](=O)[O-])c2ccccc21`
Reply: 98.4

Ask: Look up growth inhibition: `CC(=O)Nc1cccc([As+](C)(c2cccc(NC(C)=O)c2)c2cccc(NC(C)=O)c2)c1`
Reply: -5.65

Ask: Look up growth inhibition: CC1CCC2(OC1)OC1CC3C4CC=C5CC(OC6OC(CO)C(OC7OC(C)C(OC8OC(C)C(O)C(O)C8O)C(O)C7O)C(O)C6OC6OC(C)C(O)C(O)C6O)CCC5(C)C4CCC3(C)C1C2C (stereo not drawn)
Reply: 84

Ask: Look up growth inhibition: `CC[n+]1c(/C=C/c2ccc(N(CCCl)CCCl)cc2)ccc2cc(I)ccc21`
Reply: 89.5

Ask: Look up growth inhibition: CC(O)C(=O)O.CC(O)C(=O)O.[Ni] (stereo not drawn)
Reply: 0.95

Ask: Look up growth inhibition: CC(C)(C)C(Br)C(=O)NC(N)=O (stereo not drawn)
Reply: -19.4

Ask: Look up growth inhibition: CC1(C)N([O-])[N+](=O)C1(C)Br (stereo not drawn)
Reply: -20.2

Ask: Look up growth inhibition: O=[N+]([O-])O.O=[N+]([O-])O.[NH-]C1CCCCC1[NH-].[Pt+2] (stereo not drawn)
Reply: 79.5

Ask: Look up growth inhibition: C[C@]12CCC3[C@@H](CC[C@@H]4c5nonc5CC[C@]34C)C1CCC2=O (stereo partly drawn)
Reply: 87.6

Ask: Look up growth inhibition: `CCC[CH2][Sn]1([CH2]CCC)[O]C(=O)c2cccc(C)c2[O]1`
Reply: 96.3

Ask: Look up growth inhibition: `[CH3][Sn]([Br])([Br])[CH2]CCCBr`
Reply: 73.2

Ask: Look up growth inhibition: `[Br][Ni][Br].c1ccc(CN2CCN(Cc3ccccc3)CCN(Cc3ccccc3)CCN(Cc3ccccc3)CC2)cc1`
Reply: 97.6

Ask: Look up growth inhibition: CCCCN(C)CC(C(C)=O)C(c1ccccc1)c1c(O)c2ccccc2oc1=O (stereo not drawn)
Reply: 82.3

Ask: Look up growth inhibition: `c1ccc2c(NCCCCCCCCNc3c4ccccc4nc4ccccc34)c3ccccc3nc2c1`
Reply: 75.4

Ask: Look up growth inhibition: `CCOP(=O)(CP(=O)(OCC)OCC)OCC.[Cl][Sn]([Cl])([c]1ccccc1)[c]1ccccc1`
Reply: 99.1

Ask: Look up growth inhibition: `Nc1nc(N)c(-c2ccc(Cl)c(Cl)c2)c(CP(Cl)(Cl)(Cl)Br)n1`
Reply: 63.6

Ask: Look up growth inhibition: `COc1cc(N(CCCl)CCCl)ccc1C=Nc1cccc(Cl)c1`
Reply: 94

Ask: Look up growth inhibition: CCC[CH2][Sn]1([CH2]CCC)[O]C(c2ccccn2)S(=O)(=O)[O]1 (stereo not drawn)
Reply: 90.1

Ask: Look up growth inhibition: `C[CH2][Sn]1([CH2]C)[c]2ccccc2Oc2cccc[c]21`
Reply: 99.3

Ask: Look up growth inhibition: O=C1c2ccccc2C(=O)C(Cl)C1Cl (stereo not drawn)
Reply: 99.5

Ask: Look up growth inhibition: `ClCc1nc2ccccc2[nH]1`
Reply: 83.5

Ask: Look up growth inhibition: `O=[N+]([O-])c1ccc(N2CCC(CCCC3CCN(c4ccc([N+](=O)[O-])cc4[N+](=O)[O-])CC3)CC2)c([N+](=O)[O-])c1`
Reply: 87.5

Ask: Look up growth inhibition: `O=C(O)Cc1ccc2c(c1)OCO2.[Ag]`
Reply: 96.6

Ask: Look up growth inhibition: COC(COC(=O)N1CCN(C=O)CC1)C1=C(N2CC2)C(=O)C(C)=C(N2CC2)C1=O (stereo not drawn)
Reply: 40.4

Ask: Look up growth inhibition: NC(C(=O)O)c1ccccc1Cl (stereo not drawn)
Reply: -2.5

Ask: Look up growth inhibition: COC1OC(COC(C)=O)C(OC(C)=O)C(OC(C)=O)[C]1(OC(C)=O)[Hg][O]C(C)=O (stereo not drawn)
Reply: 99.7

Ask: Look up growth inhibition: `CCN(CCCl)CCCCNc1c2ccccc2nc2ccc(OC)cc12`
Reply: 72.1

Ask: Look up growth inhibition: `CC(C)(Br)C(=O)C(Br)Br`
Reply: 89.7
